ASSAYED_SYSTEM: T1, human LAIR-2 (form in the assay not stated) (human, UniProt Q6ISS4 22-152)
T1 sequence: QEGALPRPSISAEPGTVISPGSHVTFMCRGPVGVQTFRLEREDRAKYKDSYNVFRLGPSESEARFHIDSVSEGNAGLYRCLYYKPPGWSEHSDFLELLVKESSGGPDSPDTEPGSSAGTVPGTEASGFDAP
ASSAY_NAME: ELISA and FACS screening
QUANTITY_MEASURED: binding result

Example entries and their recorded answers appear below.
BINDER: anti-LAIR-1 antibody 62G10 (antibody, V domains shown, Monoclonal antibody from immunized mice (hybridoma)) VH: EVQLVETGGGLVQPKGSLKLSCATSGFTFNINAMNWVRQAPGKGLEWVARIRTKNNNFATYYADSVKDRFTISRDDSQSMLYLQMNNLKTEDTAMYYCVRGPYFDYWGQGTTLTVSS VL: DIQMTQSPASQSASLGESVTITCLASQTIGTWLAWYQQKPGKSPQLLIYAATSLADGVPSRFSGSGSGTKFSFKISNLQAEDFVTYYCQQLYSTPYTFGGGTKLEIK
binding result: no binding
//
BINDER: anti-LAIR-1 antibody 47H1 (antibody, V domains shown, Monoclonal antibody from immunized mice (hybridoma)) VH: EVQLVETGGGLVQPKGSLKLSCAASGFTFNINAMNWVRQAPGKGLEWVARIRTKNNNYATFYADSVKDRFTISRDDSQSMLYLQMNNLKTDDTAMYYCVRDRAGFFAYWGQGTPVTVSA VL: DIQMTQSPASQSASLGESVTITCLASQTIGTWLGWYRQKPGKSPQLLIYAATSLADGVPSRFSGSGSGTKFSFKISSLQAEDFVIYYCQQLYSTPLTFGSGTKLEIK
binding result: no binding
//
BINDER: anti-LAIR-1 antibody 47A1 (antibody, V domains shown, Monoclonal antibody from immunized mice (hybridoma)) VH: EVQLVESGGGLVQPKGSLKLSCAASGFTFNTYAIHWVRQAPGKGLEWVARIRSKSTNYATYYADSVKDRFTISRDDSQSMVFLQMNNLKTEDTAMYYCVRENWYYYALDYWGQGTSVTVSS VL: DIQMTQSPASLSASVGETVTITCRASGNIHNYLTWYQQKQGKSPQVLVYNAKTLEDGVPSRFSGSESGTQYSLKINSLQPEDFGSYYCQHFWSTPFTFGSGTKLEIK
binding result: no binding
//
BINDER: anti-LAIR-1 antibody 57D12 (antibody, V domains shown, Monoclonal antibody from immunized mice (hybridoma)) VH: QVQLQQSGAELARPGASVNLSCRASGYSFTSFGISWVKQRTGQGLEWIGEIYPRSDNTFYNEKFKGKATLTADKSSSTAYMELRSLTSEDSAVYFCARHFGSSSFDYWGQGTTLTVSS VL: ENVLTQSPPIMAASLGQKVTMTCSASSSVSSIYFHWYQQKSGTSPKPLIHRASNLASGVPARFSGSGSGTSYSLTISSVEAEDDATYYCQQWSGYPLTFGGGTKLEIK
binding result: no binding
//
BINDER: anti-LAIR-1 antibody 108D10 (antibody, V domains shown, Monoclonal antibody from immunized mice (hybridoma)) VH: EVQLVETGGGLVQPKGSLKLSCAASGFTFNINAMNWVRQAPGKGLEWVARIRTKNNNYATYYADSVKDRFTISRDDSESMLYLQMNNLKTEDTAMYYCVRDRYGGAMAYWGQGTSVTVSS VL: DIQMTQSSSSFSVSLGDRVTITCKASEDIYNRLAWYQQKPGNVPRLLISSATSLETGVPSRFSGSGSGKDYTLSLTSLQSEDVATYYCQQYWTIPYTFGGGTKLEIK
binding result: no binding

// moving on: another record for binding result
(Q) Look up and report measured binding result for this entry: anti-LAIR-1 antibody 61H4 (antibody, V domains shown, Monoclonal antibody from immunized mice (hybridoma)) VH: EVQLQQSGPEVLKPGASVKISCKASGYTFTDYYYMNWVKQSHGKSLEWIGYIYPNNGATSYNQKFKGKATLTVDKSSSTAYMELRSLTSEDSAVYYCARDGYSSNYYTMDYWGQGTSVTVSS VL: DVQMIQSPSSLSASLGDIVTMTCQASQGTSINLNWFQQKPGKAPKLLIYGASNLEDGVPSRFSGSRYGTDFTLTISSLEDEDMATYFCLQHTYLPYTFGGGTKLEIK
(A) no binding
